# Target Desc: Protein arginine N-methyltransferase 7 (Homo sapiens)
# Assay Overview: Inhibition of human PRMT7
Value Kind: IC50 (µM)
Answer in µM, number only, no unit symbol.

IN: Give IC50 for COc1cc(-c2ncc(F)c(Nc3ccc4nc(C)cc(N)c4c3)n2)cc(OC)c1OC
OUT: 5

----------
# Target Desc: Protein arginine N-methyltransferase 7 (Homo sapiens, UniProt Q9NVM4)
# Assay Overview: Inhibition of human PRMT7 in HEK293T cells assessed as reduction in HSP70 methylation
# Type: cell-based
Value Kind: IC50 (nM)
Answer in nM, number only, no unit symbol.

IN: Give IC50 for CC1=C(C)C(=O)C(C(C)(C)CC(=O)N(CCCCSC[C@H]2O[C@@H](n3cnc4c(N)ncnc43)[C@H](O)[C@@H]2O)Cc2cccc(-c3ccc(Cl)cc3)c2)=C(C)C1=O
OUT: 2400

----------
# Target Desc: Protein arginine N-methyltransferase 7 (Homo sapiens, UniProt Q9NVM4)
# Sequence (Q9NVM4 whole entry): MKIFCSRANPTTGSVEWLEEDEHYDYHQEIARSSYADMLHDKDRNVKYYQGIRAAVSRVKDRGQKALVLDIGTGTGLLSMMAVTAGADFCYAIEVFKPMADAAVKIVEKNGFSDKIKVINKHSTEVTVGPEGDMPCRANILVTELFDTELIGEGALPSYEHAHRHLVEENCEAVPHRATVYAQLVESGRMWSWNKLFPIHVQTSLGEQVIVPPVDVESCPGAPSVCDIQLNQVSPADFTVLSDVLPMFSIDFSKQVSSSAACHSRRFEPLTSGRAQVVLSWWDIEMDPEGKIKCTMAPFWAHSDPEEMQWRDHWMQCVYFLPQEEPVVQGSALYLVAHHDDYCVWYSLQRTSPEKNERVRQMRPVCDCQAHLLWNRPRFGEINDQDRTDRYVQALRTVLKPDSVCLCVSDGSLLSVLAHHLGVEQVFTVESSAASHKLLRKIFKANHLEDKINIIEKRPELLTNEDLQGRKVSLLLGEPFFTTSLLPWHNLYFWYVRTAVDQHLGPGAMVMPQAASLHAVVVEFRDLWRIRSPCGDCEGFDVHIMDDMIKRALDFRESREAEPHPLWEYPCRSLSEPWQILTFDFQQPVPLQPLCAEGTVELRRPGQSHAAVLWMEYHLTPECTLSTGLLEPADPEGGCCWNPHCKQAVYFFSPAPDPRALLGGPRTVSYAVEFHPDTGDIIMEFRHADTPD
# Assay Overview: Inhibition of full length human recombinant PRMT7 extracted from Sf9 cells using […] as substrate incubated for 1 hr by TopCount scintillation proximity assay
# Type: cell-free
Value Kind: pIC50
Just so you know, pIC50 here is -log10 of the concentration in molar units; reply with that number alone.

IN: State pIC50 (Protein arginine N-methyltransferase 7 (Homo sapiens, UniProt Q9NVM4)) of Nc1ncnc2c1ncn2[C@@H]1O[C@H](CSCCCCNCc2cccc(-c3ccc(Cl)cc3)c2)[C@@H](O)[C@H]1O .
OUT: 5.60

----------
# Target Desc: Protein arginine N-methyltransferase 7 (Homo sapiens)
# Assay Overview: Inhibition of human PRMT7 in HCT-116 cells assessed as reduction in HSP70 methylation
# Type: cell-based
Value Kind: IC50 (µM)
Answer in µM, number only, no unit symbol.

IN: State IC50 (Protein arginine N-methyltransferase 7 (Homo sapiens)) of CC1=C(C)C(=O)C(C(C)(C)CC(=O)N(CCCCSC[C@H]2O[C@@H](n3cnc4c(N)ncnc43)[C@H](O)[C@@H]2O)Cc2cccc(-c3ccc(Cl)cc3)c2)=C(C)C1=O .
OUT: 2.4
